Give Kd for every item shown.
Measurement target: T1, Recombinant human glypican-3 (aa 1-559), His-tagged, R&D Systems (human, UniProt P51654 25-559)
T1 construct: also called huGPC3; Hu GPC3-His
T1 sequence (P51654 other isoform, or with tags, fused parts or gaps): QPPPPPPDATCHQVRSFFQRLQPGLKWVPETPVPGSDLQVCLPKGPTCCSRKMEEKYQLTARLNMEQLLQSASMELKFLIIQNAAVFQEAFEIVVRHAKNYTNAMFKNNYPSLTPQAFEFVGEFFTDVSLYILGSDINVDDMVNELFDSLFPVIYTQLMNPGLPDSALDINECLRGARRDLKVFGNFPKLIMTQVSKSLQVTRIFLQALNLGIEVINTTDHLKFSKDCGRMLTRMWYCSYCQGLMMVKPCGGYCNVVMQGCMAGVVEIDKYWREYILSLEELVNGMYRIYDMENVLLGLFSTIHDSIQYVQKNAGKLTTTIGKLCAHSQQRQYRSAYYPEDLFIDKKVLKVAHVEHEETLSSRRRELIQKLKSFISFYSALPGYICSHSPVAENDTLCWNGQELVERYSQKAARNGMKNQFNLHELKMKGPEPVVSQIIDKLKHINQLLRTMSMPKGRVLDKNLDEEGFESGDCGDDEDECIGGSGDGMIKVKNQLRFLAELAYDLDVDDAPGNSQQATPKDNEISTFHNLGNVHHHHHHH
Experiment description: SPR, Biacore T100, GPC3-His immobilised, 1:1 fit
Form entry: value (nM) — number only.

Please report the recorded Kd for ADX_6077_F02 DG→EG mutant, alkylated (designed binder, C-terminal cysteine alkylated, also called P1-055673) GVSDVPRDLEVVAATPTSLLISWSDDYHAHRYYRITYGETGGNSPVQEFTVPGEHVTATISGLKPGVDYTITVYAVTYEGEKAATDWSISINYRTPC .
30

Then what about the binder ADX_6077_F02 alkylated (designed binder, C-terminal cysteine (of PC) alkylated with iodoacetamide, also called alkylated (capped) Adnectin; alkylated parent) MGVSDVPRDLEVVAATPTSLLISWSDDYHAHRYYRITYGETGGNSPVQEFTVPGEHVTATISGLKPGVDYTITVYAVTYDGEKAATDWSISINYRTPCHHHHHH ?
5.6

Then what about the binder ADX_6077_F02 DG→DS mutant, alkylated (designed binder, C-terminal cysteine alkylated, also called P1-055667) GVSDVPRDLEVVAATPTSLLISWSDDYHAHRYYRITYGETGGNSPVQEFTVPGEHVTATISGLKPGVDYTITVYAVTYDSEKAATDWSISINYRTPC ?
23.3

Then what about the binder ADX_6077_F02 DG→SG mutant, alkylated (designed binder, C-terminal cysteine alkylated, also called P1-055668) VSDVPRDLEVVAATPTSLLISWSDDYHAHRYYRITYGETGGNSPVQEFTVPGEHVTATISGLKPGVDYTITVYAVTYSGEKAATDWSISINYRTPC ?
23.5
